- test-target: CYP2C8 (Homo sapiens (Human), UniProt P10632)
- Sequence (P10632 whole entry): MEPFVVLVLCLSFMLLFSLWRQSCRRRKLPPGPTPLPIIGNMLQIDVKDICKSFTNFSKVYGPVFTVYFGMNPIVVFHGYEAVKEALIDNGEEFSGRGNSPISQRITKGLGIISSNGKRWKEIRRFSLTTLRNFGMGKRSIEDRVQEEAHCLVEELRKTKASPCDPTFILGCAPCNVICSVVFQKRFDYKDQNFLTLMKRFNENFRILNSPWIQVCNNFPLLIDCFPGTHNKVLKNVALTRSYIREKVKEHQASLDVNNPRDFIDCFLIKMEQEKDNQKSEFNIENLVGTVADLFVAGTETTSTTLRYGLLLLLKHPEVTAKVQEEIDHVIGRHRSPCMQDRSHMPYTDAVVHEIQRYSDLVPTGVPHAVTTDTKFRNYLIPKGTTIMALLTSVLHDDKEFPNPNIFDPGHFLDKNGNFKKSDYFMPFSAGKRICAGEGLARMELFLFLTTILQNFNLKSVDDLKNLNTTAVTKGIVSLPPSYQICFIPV
- assay-info: Cytochrome P450 inhibition assay, substrate cocktail in human liver microsome
- Format: in vitro ADME
- applied-conditions: microsomes
Provide the reported IC50 of each item.

cpd-smiles | IC50
O=C(Cc1ccccc1)c1ccn(C(=O)c2ccccc2F)c1 | > 100 µM

For the next question, use this molecule.
Bench note: what IC50 did O=C(Cc1ccccc1)c1ccn(Cc2c(F)cccc2F)c1 show?
65.5 µM

---

- test-target: Vanin-1 (Homo sapiens (Human), UniProt O95497)
- Sequence (O95497 22-513): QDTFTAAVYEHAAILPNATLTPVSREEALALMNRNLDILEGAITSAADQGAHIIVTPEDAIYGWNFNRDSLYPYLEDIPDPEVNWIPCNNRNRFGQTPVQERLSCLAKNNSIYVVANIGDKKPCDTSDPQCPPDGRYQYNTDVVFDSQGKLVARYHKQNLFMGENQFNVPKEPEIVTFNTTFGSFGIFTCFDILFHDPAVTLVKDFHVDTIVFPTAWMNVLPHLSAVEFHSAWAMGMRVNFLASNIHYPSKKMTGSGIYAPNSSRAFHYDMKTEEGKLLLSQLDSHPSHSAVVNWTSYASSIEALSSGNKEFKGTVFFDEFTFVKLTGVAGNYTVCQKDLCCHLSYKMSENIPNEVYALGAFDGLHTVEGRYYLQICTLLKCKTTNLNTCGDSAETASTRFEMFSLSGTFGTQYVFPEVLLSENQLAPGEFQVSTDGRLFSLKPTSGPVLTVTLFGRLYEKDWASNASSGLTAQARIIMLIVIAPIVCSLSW
- assay-info: VNN1 inhibitor binding assay (Kd, affinity beads, qPCR readout)
- applied-conditions: read-out: Vanin Affinity (nM), Vanin-1 Binding constants
Field: Kd. Provide a value for each of the compounds that follow.

cpd-smiles | reported-measurement
O=C(Cc1ccccc1)c1c[nH]c(C(=O)c2ccccc2F)c1 | > 500 nM
Cn1cc(C(=O)c2ccccc2F)cc1C(=O)N1CCC2(CCOCC2)C1 | < 100 nM
Cn1c(C(=O)Cc2ccccc2)ccc1C(=O)c1ccccn1 | 100 to 500 nM
O=C(Cc1ccccc1)c1ccn(C(=O)c2ccccc2F)c1 | 100 to 500 nM

Query the reported Kd for Vanin-1 (Homo sapiens (Human), UniProt O95497); item: Cn1c(C(=O)NC(C)(C)C)ccc1C(=O)c1ccccc1F
< 100 nM

---

- assay-info: in vitro
- applied-conditions: PAMPA
endpoint-name: Papp at 5 h, 20 μM (×10⁻⁶ cm/s)
Answers are plain numbers, in ×10⁻⁶ cm/s.

// query Papp at 5 h, 20 μM value for entry CCN1CCCC1CNC(=O)c1cc(S(N)(=O)=O)ccc1OC (stereo not shown) [Sulpiride]
0.0392

---

- test-target: CYP1A2 (Homo sapiens (Human), UniProt P05177)
- Sequence (P05177 whole entry): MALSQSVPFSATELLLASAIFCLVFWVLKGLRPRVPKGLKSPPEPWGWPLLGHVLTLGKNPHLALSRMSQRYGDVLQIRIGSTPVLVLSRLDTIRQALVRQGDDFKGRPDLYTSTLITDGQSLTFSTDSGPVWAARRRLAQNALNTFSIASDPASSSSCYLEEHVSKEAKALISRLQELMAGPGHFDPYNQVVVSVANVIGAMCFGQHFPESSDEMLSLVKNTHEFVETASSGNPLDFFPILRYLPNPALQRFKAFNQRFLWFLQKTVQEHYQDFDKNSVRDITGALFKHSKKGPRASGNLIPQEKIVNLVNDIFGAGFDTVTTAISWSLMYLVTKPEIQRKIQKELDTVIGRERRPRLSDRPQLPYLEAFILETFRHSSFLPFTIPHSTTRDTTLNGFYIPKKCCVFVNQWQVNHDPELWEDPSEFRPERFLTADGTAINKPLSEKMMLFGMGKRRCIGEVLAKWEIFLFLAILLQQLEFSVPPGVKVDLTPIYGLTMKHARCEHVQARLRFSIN
- assay-info: Cytochrome P450 inhibition assay, substrate cocktail in human liver microsome
- Format: in vitro ADME
- applied-conditions: microsomes
pIC50: −log10 of the molar value.
endpoint-name: pIC50

cpd-smiles | pIC50
O=C(Cc1ccccc1)c1ccn(C(=O)c2ccccc2F)c1 | < 4.00

Please examine the following record next.
// query pIC50 value for entry O=C(Cc1ccccc1)c1ccn(Cc2c(F)cccc2F)c1
< 4.00

---

- test-target: UniProtKB O95497
- assay-info: VNN1 inhibitor binding assay (Kd, affinity beads, qPCR readout)
- applied-conditions: read-out: Vanin Affinity (nM), Vanin-1 Binding constants
endpoint-name: Kd

Go through the items and report each one's Kd.
1. Cn1c(C(=O)c2ccccc2F)ccc1C(=O)N1CCC2(CCOCC2)C1
2. Cn1c(C(=O)Cc2ccccc2)ccc1C(=O)c1ccccc1F
3. O=C(c1ccn(Cc2c(F)cccc2F)c1)C(Cc1c(F)cccc1F)c1ccccc1 (stereo not shown)
4. Cn1cc(C(=O)c2ccccc2F)cc1C(=O)O
5. Cn1cc(C(=O)Cc2ccccc2)cc1C(=O)c1ccccc1F
6. CC(=O)N(C)[C@@H]1CCN(C(=O)c2cc(C(=O)c3ccccc3F)cn2C)C1

["< 100 nM", "< 100 nM", "> 500 nM", "> 500 nM", "> 500 nM", "< 100 nM"]

Report Kd for O=C(Cc1ccccc1)c1ccn(Cc2c(F)cccc2F)c1 tested on UniProtKB O95497.
100 to 500 nM

---

- test-target: CYP3A4 (Homo sapiens (Human))
- Sequence (P08684 whole entry): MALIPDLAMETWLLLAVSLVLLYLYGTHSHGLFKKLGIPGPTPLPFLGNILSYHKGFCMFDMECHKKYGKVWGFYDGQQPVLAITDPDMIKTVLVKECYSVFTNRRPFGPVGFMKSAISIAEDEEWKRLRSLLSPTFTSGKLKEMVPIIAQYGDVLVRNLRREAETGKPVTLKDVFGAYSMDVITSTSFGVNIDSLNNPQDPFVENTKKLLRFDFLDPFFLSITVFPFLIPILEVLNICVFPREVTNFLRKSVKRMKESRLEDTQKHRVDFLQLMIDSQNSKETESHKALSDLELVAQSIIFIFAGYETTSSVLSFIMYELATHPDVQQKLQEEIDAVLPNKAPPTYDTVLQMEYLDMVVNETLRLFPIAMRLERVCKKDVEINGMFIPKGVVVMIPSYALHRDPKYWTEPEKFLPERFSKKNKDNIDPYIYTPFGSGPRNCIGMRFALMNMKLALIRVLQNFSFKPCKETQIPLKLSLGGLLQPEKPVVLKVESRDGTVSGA
- assay-info: Cytochrome P450 inhibition assay, substrate cocktail in human liver microsome
- Format: in vitro ADME
- applied-conditions: microsomes
endpoint-name: pIC50
One number for each entry, as −log10 of the molar value.

Request the reported pIC50 associated with O=C(Cc1ccccc1)c1ccn(Cc2c(F)cccc2F)c1 [Compound 2]
4.13

Each recorded value in this set is attributed to patent US20250042850A1.
